pIC50: −log10 of the molar value.
// molecules with reported pIC50 on Somatostatin receptor type 4 (Homo sapiens, UniProt P31391), multi-publication
Sequence (P31391 whole entry): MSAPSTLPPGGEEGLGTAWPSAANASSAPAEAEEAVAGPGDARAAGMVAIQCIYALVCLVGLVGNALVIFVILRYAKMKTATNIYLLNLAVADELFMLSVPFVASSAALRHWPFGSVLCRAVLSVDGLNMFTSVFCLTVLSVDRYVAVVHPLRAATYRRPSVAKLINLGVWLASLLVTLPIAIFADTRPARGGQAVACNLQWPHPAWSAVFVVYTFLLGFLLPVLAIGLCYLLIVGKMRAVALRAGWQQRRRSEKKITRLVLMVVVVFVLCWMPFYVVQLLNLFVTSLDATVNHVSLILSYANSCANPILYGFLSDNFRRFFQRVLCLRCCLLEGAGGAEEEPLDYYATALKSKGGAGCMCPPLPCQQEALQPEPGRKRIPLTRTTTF

| chemical.string | pIC50 |
| --- | --- |
| CC(C)NCc1ccc(C[C@@H]2NC(=O)[C@@H](Cc3c[nH]c4ccccc34)NC(=O)[C@H](Cc3ccccc3)NC(=O)[C@H](Cc3ccccc3)NC(=O)[C@H](CCCCN)NC(=O)[C@@H](N)CSSC[C@@H](C(=O)N[C@@H](CCCCN)C(=O)O)N(C)C(=O)[C@H](CO)NC(=O)[C@H]([C@@H](C)O)NC(=O)[C@H](Cc3ccccc3)NC(=O)[C@H]([C@@H](C)O)NC2=O)cc1 | < 6.00 |
| CC(C)NCc1ccc(C[C@@H]2NC(=O)[C@@H](Cc3c[nH]c4ccccc34)NC(=O)[C@@H]3CCC(=O)NCCCC[C@H](NC(=O)[C@H](Cc4ccc(O)cc4)NC(=O)[C@H]([C@@H](C)O)NC2=O)C(=O)N[C@@H](CO)C(=O)N[C@H](C(N)=O)CSSC[C@H](N)C(=O)N[C@@H](CCCCN)C(=O)N[C@@H](Cc2ccccc2)C(=O)N3)cc1 | < 6.00 |
| CC(C)NCc1ccc(C[C@@H]2NC(=O)[C@@H](Cc3ccc4ccccc4c3)NC(=O)[C@H](Cc3ccccc3)NC(=O)[C@H](Cc3ccccc3)NC(=O)[C@H](CCCCN)NC(=O)[C@@H](NC(=O)CCc3ccc(O)cc3)CSSC[C@@H](C(=O)O)NC(=O)[C@H](CO)NC(=O)[C@H]([C@@H](C)O)NC(=O)[C@H](Cc3ccccc3)NC(=O)[C@H]([C@@H](C)O)NC2=O)cc1 | < 5.00 |
| CC(C)NCc1ccc(C[C@@H]2NC(=O)[C@@H](Cc3ccc4ccccc4c3)NC(=O)[C@H](Cc3ccccc3)NC(=O)[C@H](Cc3ccccc3)NC(=O)[C@H](CCCCN)NC(=O)[C@@H](N)CSSC[C@@H](C(=O)O)NC(=O)[C@H](CO)NC(=O)[C@H]([C@@H](C)O)NC(=O)[C@H](Cc3ccccc3)N(C)C(=O)[C@H]([C@@H](C)O)NC2=O)cc1 | < 6.00 |
| CC(C)NCc1ccc(C[C@@H]2NC(=O)[C@@H](Cc3c[nH]c4ccccc34)NC(=O)[C@@H]3CCC(=O)NCC[C@H](NC(=O)[C@H]([C@@H](C)O)NC2=O)C(=O)N[C@@H]([C@@H](C)O)C(=O)N[C@@H](CO)C(=O)N[C@H](C(=O)O)CSSC[C@H](NC(=O)[C@@H](N)Cc2ccc(O)cc2)C(=O)N[C@@H](CCCCN)C(=O)N[C@@H](Cc2ccccc2)C(=O)N3)cc1 | < 6.00 |

Let us examine a further case.
Query CC(C)NCc1ccc(C[C@@H]2NC(=O)[C@H](N(C)C(=O)c3ccc4ccccc4c3)NC(=O)[C@H](Cc3ccccc3)NC(=O)[C@@H](N)CSSC[C@@H](C(N)=O)NC(=O)[C@H](Cc3ccc(O)cc3)NC2=O)cc1 on Somatostatin receptor type 4 (Homo sapiens, UniProt P31391); pIC50 returned: < 6.00
